Origin of the recorded values: patent US5883091A

assay: log p (pH 2), physical constants; type: physicochemical
logD of 5 or higher: true. Under 5: false.

Check out these entries, answers already filled in.
- smiles-input: "Fc1cccc(F)c1C1=NN(Cc2cc(Cl)c(OCc3ccc(Cl)cc3)c(Cl)c2)CCO1"
  class: "true"
- smiles-input: "Clc1ccc(COc2c(Cl)cc(CN3CCOC(c4cccs4)=N3)cc2Cl)cc1"
  class: "true"
- smiles-input: "FC(F)(F)Oc1ccc(-c2ccc(CN3CCOC(c4cccs4)=N3)cc2)cc1"
  class: "true"
- smiles-input: "Clc1cc(Cl)cc(C2=NN(Cc3ccc(Br)cc3)CCO2)c1"
  class: "true"
- smiles-input: "Fc1cccc(F)c1C1=NN(Cc2ccc(Br)cc2)CCO1"
  class: "false"
- smiles-input: "Clc1ccc(Cl)c(C2=NN(Cc3cccc(Oc4ccccc4)c3)CCO2)c1"
  class: "true"

## Task Exam item: decide whether the reported logD for "Fc1cccc(F)c1C1=NN(Cc2ccc(-c3ccccc3)cc2)CCO1" is at least 5.
## Result false

## Task hey, is logD for this one >= 5? "Fc1cccc(F)c1C1=NN(Cc2ccccc2)CCO1"
## Result false

## Task Record "Fc1ccc(CN2CCOC(c3ccc(Cl)c(Cl)c3)=N2)cc1Oc1ccccc1" ; criterion: logD no lower than 5. Met?
## Result true

## Task Does logD meet or surpass 5 for "FC(F)(F)c1ccc(C2=NN(Cc3ccc(Oc4ccc(C(F)(F)F)cc4Cl)cc3)CCO2)cc1" ?
## Result true

## Task Could you tell me if the measured logD of "FC(F)(F)c1ccc(Oc2ccc(CN3CCOC(c4cc(Cl)ccc4Cl)=N3)cc2)c(Cl)c1" reaches 5 or more?
## Result true
